# clearance listing for each entry below
assay: Clearance in dog at 0.5 mg/kg, iv
Type: ADME, organism-based, Canis lupus familiaris
Parameters: dose 0.5 mg/kg, route intravenous
condition: in vivo
Record the value in mL/min/kg, omitting the unit from your answer.

# smiles-notation, test-readout, u, numeric-value
records = [
    ("CC(=O)N1CCC(c2nccnc2Oc2ccc(C(=O)c3nc4ccccc4[nH]3)cc2)CC1", "clearance", "mL/min/kg", 1.23),
]

Now turn to the next molecule.
Query block: # clearance lookup, item `CC(=O)N1CCC(c2cccnc2Oc2ccc(C(=O)c3nc4ccccc4[nH]3)cc2)CC1`
Result block: 0.867

---

assay: Half life in dog at 0.5 mg/kg, po
Format: ADME, organism-based, Canis lupus familiaris
Parameters: dose 0.5 mg/kg, route oral
condition: in vivo
test-readout: half-life
Answer format: number, then unit.

Query block: # half-life lookup, item `CC(=O)N1CCC(c2cccnc2Oc2ccc(C(=O)c3nc4ccccc4[nH]3)cc2)CC1`
Result block: 5.07 h

---

# bioavailability listing for each entry below
assay: Oral bioavailability in rat at 10 mg/kg
Assay type: ADME, organism-based
condition: in vivo

# smiles-notation, test-readout, result
records = [
    ("CC(=O)N1CCC(c2nccnc2Oc2ccc(C(=O)c3nc4ccccc4[nH]3)cc2)CC1", "bioavailability", "49%"),
]

Now turn to the next molecule.
Query block: # bioavailability lookup, item `O=C(c1ccc(Oc2nccnc2C2CCOCC2)cc1)c1nc2ccccc2[nH]1`
Result block: 22%

---

# AUC listing for each entry below
assay: AUC in rat at 10 mg/kg, po
Assay type: ADME, organism-based, Plasma
Parameters: dose 10 mg/kg, route oral
condition: plasma
Record the value in µM·h, omitting the unit from your answer.

# smiles-notation, numeric-value
records = [
    ("CC(=O)N1CCC(c2nccnc2Oc2ccc(C(=O)c3nc4ccccc4[nH]3)cc2)CC1", 19.8),
]

Now turn to the next compound.
Query block: # AUC lookup, item `O=C(c1ccc(Oc2nccnc2C2CCOCC2)cc1)c1nc2ccccc2[nH]1`
Result block: 7.93

---

assay: Half life in non-human primates at 0.5 mg/kg, iv
Type: ADME, organism-based
Set-up: dose 0.5 mg/kg, route intravenous
condition: monkey, in vivo
test-readout: half-life

# smiles-notation, half-life
data = [
    ("CC(=O)N1CCC(c2cccnc2Oc2ccc(C(=O)c3nc4ccccc4[nH]3)cc2)CC1", "1.26 h"),
]

Query block: # half-life lookup, item `CC(=O)N1CCC(c2nccnc2Oc2ccc(C(=O)c3nc4ccccc4[nH]3)cc2)CC1`
Result block: 1.09 h

---

assay: Half life in dog at 1 mg/kg, po
Type: ADME, organism-based, Canis lupus familiaris
Set-up: dose 1 mg/kg, route oral
condition: in vivo
test-readout: half-life (h)
Record the value in h, omitting the unit from your answer.

Query block: # half-life lookup, item `CC(=O)N1CCC(c2nccnc2Oc2ccc(C(=O)c3nc4ccccc4[nH]3)cc2)CC1`
Result block: 11

---

Tested on: Rattus norvegicus
assay: AUC in rat at 10 mg/kg, po
Format: ADME, organism-based, Plasma
Set-up: dose 10 mg/kg, route oral
condition: in vivo
test-readout: AUC (µM·h)
Record the value in µM·h, omitting the unit from your answer.

Query block: # AUC lookup, item `CC(=O)N1CCC(c2cccnc2Oc2ccc(C(=O)c3nc4ccccc4[nH]3)cc2)CC1`
Result block: 5.07
